Read-out: Intercellular Adhesion Molecule 1 (ICAM1), ICAM1 (gene 3383)
Experiment: BSK_3C_ICAM1: BioMAP Diversity Plus: 3C Assay for Intercellular Adhesion Molecule 1 (ICAM1) Biomarker Activity (AID 2283003)
Conditions: primary human endothelial cells (HUVEC); actives raise or lower the signal
Active and inactive are the calls of the source. The calls were made as follows: active = hit-call score of the fitted dose curve at least 0.9, where 1 is the maximum; inactive = score below 0.9.
The categories you may choose from are active, inactive

MOLECULE	LABEL_VALUE
OCCC(F)(F)C(F)(F)C(F)(F)C(F)(F)F	inactive
CCCCCCCCCC	inactive
c1ccc2cc3ccccc3cc2c1	inactive
O=C(NO)C1(NS(=O)(=O)c2ccc(Oc3ccc(F)cc3)cc2)CCOCC1	inactive
CCCCCCCCCCCCCCO	active

-- ask Record request — test call for CCCCCCOC(=O)CC(CC(=O)OCCCCCC)(OC(=O)CCC)C(=O)OCCCCCC
-- reply inactive

-- ask Give the logged outcome of this assay for the following molecule: CCOC(N)=O
-- reply inactive

-- ask Would you mind telling me which call this test gave NC(=O)N1c2ccccc2C=Cc2ccccc21 ?
-- reply inactive

-- ask Look up the recorded call for CCOc1ccc2[nH]cc(C(=O)NCc3ccccc3)c(=O)c2n1 in this test.
-- reply inactive

-- ask For Cc1nc(-c2ccccn2)ncc1C(=O)Nn1cc(C)c2cc(F)ccc21 , which call appears in the assay record?
-- reply inactive

----------
Read-out: growth arrest and DNA damage 45 (GADD45G), GADD45G (gene 10912)
Test: LTEA_HepaRG_GADD45G: Life Technologies and Expression Analysis (LTEA) Assay for growth arrest and DNA damage 45 (GADD45G) using HepaRG (AID 2283499)
Settings: mRNA level, 48 h; actives raise or lower the signal
Activity calls are given as the source filed them. Rule for the calls: active = hit-call score of the fitted dose curve at least 0.9, where 1 is the maximum; inactive = score below 0.9.
Bench note: report the call from active, inactive

COMPOUND	LABEL_VALUE
C=CCc1cc(S(=O)(=O)c2ccc(O)c(CC=C)c2)ccc1O	inactive
CCCOc1ccc(S(=O)(=O)N2CCN(CC)CC2)cc1-c1nc2c(CC)n(Cc3ccccn3)nc2c(=O)[nH]1	active
OCCOCCOCCO	inactive

-- ask Outcome? O=C(O)c1cccc(C[C@@H]2COc3ccc(OCc4nc5cc(F)ccc5s4)cc3[C@@H]2O)c1
-- reply active

-- ask Assay outcome for Cc1nc(-c2ccccn2)ncc1C(=O)Nn1cc(C)c2cc(F)ccc21 : what was it?
-- reply inactive

-- ask Any idea what this test logged for CCOC(N)=O ?
-- reply inactive

-- ask Check the results log: what was the call for OCc1ccccc1 ?
-- reply inactive

----------
Assay: ATG_Ets_CIS: Attagene CIS-FACTORIAL HepG2 Assay for human Erythroblast Transformation Specific (ETS) (AID 2282941)
Conditions: HepG2 ETS cis-reporter transcription, actives raise or lower the signal
Active and inactive are the calls of the source. How the source made its calls: active means hit-call score of the fitted dose curve at least 0.9, where 1 is the maximum; inactive means score below 0.9.
Your answer must be one of the following: active, inactive

Examples with answers:
COMPOUND	LABEL_VALUE
Cc1ccc(S(=O)(=O)NC(=O)NN2CCCCCC2)cc1	inactive
FC(F)=C(F)C(F)(F)C(F)(F)C(F)(F)C(F)(F)C(F)(F)C(F)(F)F	inactive
OC(CCl)CCl	inactive
OCCOCCOCCO	inactive
OC(Cn1cncn1)(Cn1cncn1)c1ccc(F)cc1F	inactive

-- ask Identify the outcome logged in this assay for the compound shown: CCCCCCCCCCCCCCCCOS(=O)(=O)O
-- reply inactive

-- ask Could you check what this test reported for Cc1cccc(O)c1C ?
-- reply inactive

-- ask What did the test return for O=S1(=O)CCCO1 ?
-- reply inactive

----------
Biological target: guinea pig Sigma Receptor, Non-selective Binding, SIGMAR1 (gene 100135589)
Experiment: NVS_OR_gSIGMA_NonSelective: NovaScreen (NVS) Nuclear Receptor Binding Assay for guinea pig Sigma Receptor, Non-selective Binding (AID 2283367)
Protocol: NVS_OR_gSIGMA_NonSelective is a biochemical, single-readout assay that uses extracted gene-proteins from Guinea pig brain membranes in a tissue-based cell-free assay. Measurements were taken 1 hour after chemical dosing in a 48-well plate.NVS_OR_gSIGMA_NonSelective is one of one assay component(s) measured or calculated from the NVS_OR_gSIGMA_NonSelective assay. […] Furthermore, this assay endpoint can be referred to as a primary readout, because the performed assay has only produced 1 assay endpoint. […]
Active and inactive are the calls of the source. Rule for the calls: active = hit-call score of the fitted dose curve at least 0.9, where 1 is the maximum; inconclusive = response in the unintended direction; inactive = score below 0.9.
Valid outcomes are listed here; reply with one: true (1) (active), false (0) (inactive)

# example entries with known answers
COMPOUND	LABEL_VALUE
CCCCCCCCN(C)C	true (1)
Cc1ncc([C@@H](CCCCCCc2ccc3c(n2)NCCC3)CC(=O)O)cn1	true (1)
Cc1nccn1-c1ccc(Sc2cccc(C3(C(N)=O)CCOCC3)c2)cc1	true (1)
CCn1nc(C)c2c1C(=O)NCC(c1ccc(O)cc1)=N2	false (0)
CCCCC(CC)C(=O)OCCOCCOCCOC(=O)C(CC)CCCC (configuration not stated)	false (0)

-- ask Could you kindly confirm the outcome this assay logged for c1ccc(C(O[C@@H]2CCCN(CCc3ccc4c(c3)OCO4)C2)c2ccccc2)cc1 ?
-- reply true (1)

-- ask Each compound tested received a call. Report the one for CC(C)C(=O)Nc1ccc([N+](=O)[O-])c(C(F)(F)F)c1 .
-- reply false (0)

----------
Read-out: Intercellular Adhesion Molecule 1 (ICAM1), ICAM1 (gene 3383)
Experiment: BSK_KF3CT_ICAM1: BioMAP Diversity Plus: KF3CT Assay for Intercellular Adhesion Molecule 1 (ICAM1) Biomarker Activity (AID 2283067)
Conditions: primary human keratinocytes with fibroblasts; actives raise or lower the signal
Active and inactive are the calls of the source. How the source made its calls: active means hit-call score of the fitted dose curve at least 0.9, where 1 is the maximum; inactive means score below 0.9.
Write down one outcome, taken from active, inactive

Answered cases to consult:
COMPOUND	LABEL_VALUE
O=C(NO)C1(NS(=O)(=O)c2ccc(Oc3ccc(F)cc3)cc2)CCOCC1	inactive
OCc1c[nH]c2ccccc12	inactive
C[Si](C)(C)C(F)(F)C(F)(F)C(F)(F)F	inactive

-- ask Returns: the outcome recorded for Cc1nc(-c2ccccn2)ncc1C(=O)Nn1cc(C)c2cc(F)ccc21 in this assay.
-- reply inactive

-- ask So what was the verdict on FC(F)=C(F)C(F)(F)C(F)(F)C(F)(F)C(F)(F)C(F)(F)C(F)(F)F in this test?
-- reply inactive

----------
Read-out: Monocyte Chemoattractant Protein-1 (MCP1), CCL2 (gene 6347)
Test: BSK_SAg_MCP1: BioMAP Diversity Plus: SAg Assay for Monocyte Chemoattractant Protein-1 (MCP1) Biomarker Activity (AID 2283090)
Conditions: primary human HUVEC with PBMC; actives raise or lower the signal
Calls of active or inactive are those of the source. Rule for the calls: active = hit-call score of the fitted dose curve at least 0.9, where 1 is the maximum; inactive = score below 0.9.
Could you please pick one outcome from this set? 1 = active, -1 = inactive

MOLECULE	LABEL_VALUE
CCN(CC)C(=S)SSC(=S)N(CC)CC	1
c1ccc2c(c1)-c1cccc3c1c-2cc1ccccc13	-1

-- ask Test call, this molecule: NC(=O)N1c2ccccc2C=Cc2ccccc21
-- reply -1

-- ask Which result was noted for this molecule in the test: FC(F)=C(F)C(F)(F)C(F)(F)C(F)(F)C(F)(F)C(F)(F)C(F)(F)F
-- reply -1

----------
Read-out: Vascular cell adhesion molecule 1 (VCAM1), VCAM1 (gene 7412)
Assay: BSK_hDFCGF_VCAM1: BioMAP Diversity Plus: hDFCGF Assay for Vascular cell adhesion molecule 1 (VCAM1) Biomarker Activity (AID 2283065);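 as to AC50: VCAM-1 protein level quantified by ELISA after 24 h chemical exposure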
Conditions: primary human foreskin fibroblasts; actives raise or lower the signal
Calls of active or inactive are those of the source. How the source made its calls: active means hit-call score of the fitted dose curve at least 0.9, where 1 is the maximum; inactive means score below 0.9.
PARAMETER_MEASURED: AC50

COMPOUND	AC50
NNC(=O)c1ccncc1	inactive
CCn1nc(C)c2c1C(=O)NCC(c1ccc(O)cc1)=N2	inactive
CCCCCCCCCC	inactive
Cc1nccn1-c1ccc(Sc2cccc(C3(C(N)=O)CCOCC3)c2)cc1	3.25 µM (active)
c1ccc2cc3ccccc3cc2c1	inactive
c1ccc2c(c1)-c1cccc3c1c-2cc1ccccc13	inactive

Attention now turns to another entry.
The value of AC50 measured for the compound CCOc1ccc2[nH]cc(C(=O)NCc3ccccc3)c(=O)c2n1 turned out to be inactive

----------
Assay: ATG_NRF2_ARE_CIS: Attagene CIS-FACTORIAL HepG2 Assay for human Nuclear Factor Erythroid 2 Related Factor 2 (NFR2) response to Antioxidant Response Elements (ARE) (AID 2282992);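 as to AC50: reporter mRNA level measured by RT-PCR and capillary electrophoresis fluorescence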
Conditions: HepG2 Attagene ARE/NRF2 reporter, transcription factor activity; actives raise or lower the signal
Activity calls are given as the source filed them. The calls were made as follows: active = hit-call score of the fitted dose curve at least 0.9, where 1 is the maximum; inactive = score below 0.9.
PARAMETER_MEASURED: AC50

Examples with answers:
COMPOUND	PARAMETER_MEASURED	ENDPOINT_VALUE
CCN(CC)C(=S)SSC(=S)N(CC)CC	AC50	184 µM (active)
CCCCN1C(=O)[C@@H]([C@H](O)C2CCCCC2)NC(=O)C12CCN(Cc1ccc(Oc3ccc(C(=O)O)cc3)cc1)CC2	AC50	inactive
O=S(=O)(O)c1ccc(N=Nc2c(O)ccc3cc(S(=O)(=O)O)ccc23)cc1	AC50	inactive
NCC(F)(F)C(F)(F)C(F)(F)C(F)(F)F	AC50	inactive

Measured AC50 of CC[C@H](C)C(=O)O[C@H]1C[C@H](O)C=C2C=C[C@H](C)[C@H](CC[C@@H](O)C[C@@H](O)CC(=O)O)[C@H]21 : inactive

Measured AC50 of Cc1ccc(S(=O)(=O)NC(=O)NN2CCCCCC2)cc1 : inactive

Per the record, OCc1c[nH]c2ccccc12 has AC50 of 26.6 µM (active) [middle of 5 runs]

Memo: C[C@@H](Oc1ccc(CNC(=O)c2cccnc2Oc2ccc3c(c2)OCO3)c(F)c1)C(=O)O , reported AC50: inactive

Item: CCCCCCCCN(C)C | AC50: inactive

# AC50 of Cc1ncc([C@@H](CCCCCCc2ccc3c(n2)NCCC3)CC(=O)O)cn1 = inactive

// AC50 lookup, molecule = O=C(O)c1cccc(C(=O)O)c1 , result: inactive
